% Blocking overview
molecular target: T1, human CCR8 (human, UniProt P51685 1-355); test: flow blocking, PBMC CCR8+CD4+; competitor PE-AB11
T1 construct: Native CCR8 on human PBMC (CCR8+ CD3+ or CCR8+ CD4+ lymphocytes); also called chemokine (C-C motif) receptor 8
T1 sequence (P51685 whole entry): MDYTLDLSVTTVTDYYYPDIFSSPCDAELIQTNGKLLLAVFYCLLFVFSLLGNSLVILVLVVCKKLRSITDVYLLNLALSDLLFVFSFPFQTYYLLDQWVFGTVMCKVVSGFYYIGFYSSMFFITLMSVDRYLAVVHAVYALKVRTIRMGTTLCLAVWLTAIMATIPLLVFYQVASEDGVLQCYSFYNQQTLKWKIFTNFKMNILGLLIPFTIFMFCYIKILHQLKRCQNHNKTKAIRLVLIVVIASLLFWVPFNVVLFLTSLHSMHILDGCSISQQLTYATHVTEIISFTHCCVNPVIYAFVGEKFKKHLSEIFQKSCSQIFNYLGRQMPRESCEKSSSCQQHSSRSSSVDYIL
reportedMetric: % Blocking

| binder | measurement |
| --- | --- |
| AB10 (antibody, V domains shown, Hybridoma monoclonal; also called antibody 10; clone 10) VH: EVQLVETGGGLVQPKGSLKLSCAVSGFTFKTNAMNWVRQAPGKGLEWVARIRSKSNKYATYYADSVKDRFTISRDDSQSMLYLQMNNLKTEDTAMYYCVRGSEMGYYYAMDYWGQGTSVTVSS VL: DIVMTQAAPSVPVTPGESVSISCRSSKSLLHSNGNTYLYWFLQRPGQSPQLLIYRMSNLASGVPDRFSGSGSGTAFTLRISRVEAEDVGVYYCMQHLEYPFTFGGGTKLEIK | 98.5% |
| AB2 (antibody, V domains shown, Hybridoma monoclonal; Same VH/VL entries as AB1; also called antibody 2; clone 2) VH: QVQLKESGPGLVKPSETLSLTCTVSGFSLTSYHISWVRQPPGKGLEWMGVIWGDGSKTYNSALKSRLSISRDTSKSQVFLKMRSLKTEDTATYYCARGGDSGFAYWGQGTLVTVSS VL: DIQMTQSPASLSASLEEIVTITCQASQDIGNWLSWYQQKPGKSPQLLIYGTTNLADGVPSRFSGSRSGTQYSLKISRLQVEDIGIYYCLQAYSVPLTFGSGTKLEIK | -3.57% |
| AB11 (antibody, V domains shown, Hybridoma monoclonal; also called antibody 11; clone 11) VH: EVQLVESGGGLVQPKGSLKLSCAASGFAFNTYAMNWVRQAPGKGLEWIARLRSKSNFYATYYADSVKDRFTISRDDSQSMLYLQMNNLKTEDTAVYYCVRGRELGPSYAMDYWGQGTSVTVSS VL: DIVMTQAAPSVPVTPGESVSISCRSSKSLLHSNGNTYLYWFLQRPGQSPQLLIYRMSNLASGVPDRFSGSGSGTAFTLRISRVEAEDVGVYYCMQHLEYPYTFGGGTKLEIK | 96.9% |
